- Assay Notes: Quantitative High-Throughput drug screen in 47 multiple myeloma cell lines against the NCATS MIPE library collection: KMS28PE_JCRB cell viability assay (AID 1918983); also: nearly all actives have a fitted effect of over 35% in size
- Setup Conditions: KMS28PE multiple myeloma viability, CellTiter-Glo ATP, 48 h; series mostly up to 45.8 µM
Results filed as inconclusive are left out. Calls of active or inactive are those of the source. Calls follow the shape of the dose curve; as a rule, active = well fitted cell-killing curve with a large enough effect; inconclusive = small, poorly fitted or top-dose-only effect, or effect the other way; inactive = no such curve, though single readings can be large or run the other way.
Parameter call: string, one of active, inactive

# count of solved cases: 8
- Structure: "N=C1SC(=Cc2ccc(-c3ccc4c(c3)C(=O)NC4=O)o2)C(=O)N1c1ccc(Br)cc1"
  Label: "active"
- Structure: "CON(C)C(=O)N1N=C(c2cc(F)ccc2F)S[C@]1(CCCN)c1ccccc1"
  Label: "inactive"
- Structure: "CCc1cc(-c2n[nH]c(C)c2-c2ccc3c(c2)OCCO3)c(O)cc1O"
  Label: "active"
- Structure: "CN(CC=CC#CC(C)(C)C)Cc1cccc2ccccc12"
  Label: "inactive"
- Structure: "Oc1ccc(C=Cc2cc(O)cc(O)c2)cc1"
  Label: "inactive"
- Structure: "CC[C@H](NC(=O)[C@H](C)NC)C(=O)N1C[C@@H](O)C[C@H]1Cc1c(-c2[nH]c3cc(F)ccc3c2C[C@H]2C[C@H](O)CN2C(=O)[C@H](CC)NC(=O)[C@H](C)NC)[nH]c2cc(F)ccc12"
  Label: "inactive"
- Structure: "Cc1nc2c([nH]1)CCN(C(=O)c1ccc(NC(=O)c3ccccc3-c3ccccc3)cc1)c1ccccc1-2"
  Label: "inactive"
- Structure: "CC(C)(O)CC(=O)NCCn1ccc2ncnc(Nc3ccc(Oc4cccc(C(F)(F)F)c4)c(Cl)c3)c21"
  Label: "active"

Below: the item to evaluate.
For `COc1cc(Cl)cn2c(-c3cccc(NC4CNC4)n3)cnc12` , what call appears in the results of this test?
active
